- test.details: NCI Yeast Anticancer Drug Screen. Data for the cln2 rad14 strain (AID 165);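 note: 0% = growth equal to vehicle treated cultures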
- conditions.used: S. cerevisiae cln2 rad14 strain, at 50.0 µM, hits give high values
- Description: Growth inhibition of yeast strains with defined genetic alterations is measured as a screen for potential anti-cancer activity. Selected strains with alterations in DNA damage repair or cell cycle control were exposed to compounds and growth inhibition was measured relative to vehicle treated controls. The strain used in this assay is cln2 rad14
About 79,000 compounds went through this panel and 15% of them were active in at least one assay; those are over-represented in the sample as a whole.
assay.readout: growth inhibition (%)
Field: numeric (%). Do not append units.

Below, 5 molecules whose answers are already recorded.
CCOC1CCC(C(C)=O)C(C#N)(C#N)C1(C#N)C#N (stereo unspecified)	-7.35
Cc1cc2c(=O)c(C)c[nH]c2cc1Cl	-46.1
NC(=O)c1cccc(NC=O)c1	29.7
Nc1cccc(CCc2nc(N)nc(N)c2-c2ccc(Cl)cc2)c1	3.2
O=C(Nc1cc(Cl)c(I)c(Cl)c1)C(F)(F)F	97

--- query ---
The molecule O=C(N/C(=C/c1ccccc1)C(=O)N1CCN(C(=O)/C(=C\c2ccccc2)NC(=O)c2ccccc2)CC1)c1ccccc1 showed growth inhibition equal to -5.7

###

- test.details: NCI Yeast Anticancer Drug Screen. Data for the sgs1 mgt1 strain (AID 161);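 note: 0% = growth of cultures given vehicle only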
- conditions.used: S. cerevisiae sgs1 mgt1 strain, at 50.0 µM, hits give high values
About 79,000 compounds went through this panel and 15% of them were active in at least one assay; those are over-represented in the sample as a whole.
Answer rule not met if growth inhibition is under 20%, and rule met if it is 20% or more.

Here's what some known entries look like.
CCC[CH2][Sn]1([CH2]CCC)[O]C2C(CO)OC(n3c(Br)c(C(N)=O)c4c(N)ncnc43)C2[O]1 (stereo not drawn)	rule met
COC1C(=O)CCC2(CO2)C1(O)C1(C)OC1CC=C(C)C (stereo not drawn)	rule not met
Cc1ccc2[nH]c(C)c(C(=O)c3ccncc3)c2c1	rule not met

Q: Tell me whether growth inhibition is at least 20% here: O=C(Nc1ccc(Cl)cc1)Oc1ccc(Br)cc1Br
Ans: rule not met

Q: Tell me whether growth inhibition is at least 20% here: NNC(=O)c1ccccc1F
Ans: rule not met

Q: Tell me whether growth inhibition is at least 20% here: CCCCCCCCC(=O)Nc1nc2nc[nH]c2c(=O)[nH]1
Ans: rule not met

Q: Tell me whether growth inhibition is at least 20% here: C(CN1CCC2CCC(C2)C1)=C(c1ccccc1)c1ccccc1 (stereo not drawn)
Ans: rule not met

Q: Tell me whether growth inhibition is at least 20% here: CCCCCC(=O)NC(=O)Nc1ccccc1OC
Ans: rule not met

Q: Tell me whether growth inhibition is at least 20% here: O=C(NC(Nc1ccc(F)cc1)(C(F)(F)F)C(F)(F)F)C(C(F)(F)F)C(F)(F)F
Ans: rule met

Q: Tell me whether growth inhibition is at least 20% here: Cc1ccsc1/C=N/Nc1cnccn1
Ans: rule not met

Q: Tell me whether growth inhibition is at least 20% here: O=C(Nc1cccc(Cl)c1Cl)Oc1cccc2ccccc12
Ans: rule not met

Q: Tell me whether growth inhibition is at least 20% here: COC(=O)c1cc(-c2ccccc2Cl)n2c(N)nnc2n1
Ans: rule met

Q: Tell me whether growth inhibition is at least 20% here: c1ccc(C(=C2CCCCCCCCCCCCC2)c2ccccc2)cc1
Ans: rule not met

Q: Tell me whether growth inhibition is at least 20% here: N#C/C(=C(/N)N1CCOCC1)N1CCOCC1
Ans: rule not met

Q: Tell me whether growth inhibition is at least 20% here: CN(C)CC(CN(C)C)C(=O)C(C)(C)C
Ans: rule met

Q: Tell me whether growth inhibition is at least 20% here: O=C(CC1NCCS1)OCc1ccc(Br)cc1 (stereo not drawn)
Ans: rule not met

Q: Tell me whether growth inhibition is at least 20% here: Cc1n[n+](CC(=O)c2ccccc2)c2sc(N)nn12
Ans: rule not met

Q: Tell me whether growth inhibition is at least 20% here: C=C(COC(C)=O)CC(/C=C(\C)CCC=C(C)C)OC(C)=O (stereo not drawn)
Ans: rule not met

Q: Tell me whether growth inhibition is at least 20% here: Nc1cc(C(=O)c2ccccc2C(=O)O)ccc1Cl
Ans: rule not met

Q: Tell me whether growth inhibition is at least 20% here: COC1=CC(=O)C(=O)C=C1C(C)(C)C
Ans: rule met

Q: Tell me whether growth inhibition is at least 20% here: CCOC(=O)c1ccc(NC(=O)Nc2ccc(F)c([N+](=O)[O-])c2)cc1
Ans: rule met

Q: Tell me whether growth inhibition is at least 20% here: CC(=O)NCCCOc1ccc(N)cc1
Ans: rule not met

Q: Tell me whether growth inhibition is at least 20% here: Cc1cc2ccccc2n1CC(=O)N1CCCC1
Ans: rule not met

Q: Tell me whether growth inhibition is at least 20% here: O=C(CC(=O)c1cccc([N+](=O)[O-])c1)C(=O)Nc1ccccc1
Ans: rule not met
